Test system: Heat shock protein HSP 90 (rabbit reticulocyte lysate; luciferase refolding)
Assay Protocol: HSP90 inhibitors, primary screen, cell lysate, luminescence (AID 1789);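 also: 0% = DMSO wells and 100% = 60 µM geldanamycin wells; inhibitors lower the luminescence because luciferase stays unfolded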
Conditions: 3 h, at 5.6 µM, hits give high values
Out of some 290,000 compounds screened, about 2,700 (0.93%) were called active. Shown is part of a subset that was picked to be rich in actives.

{"Compound": "O=C(NCCc1ccccn1)c1ccc(COc2ccccc2)o1", "inhibition / %": 9}
{"Compound": "Cc1c(CNCCc2ccccc2)c(C(=O)O)c(C)n1-c1ccccc1", "inhibition / %": 1.5}
{"Compound": "O=c1oc(/C=C/c2ccccc2)nc2ccccc12", "inhibition / %": 21}
{"Compound": "Cc1cccc(NC(=O)Nc2ccc(OCc3ccccc3)cc2)n1", "inhibition / %": -4.5}
{"Compound": "C/C(=N\\Nc1nncc2ccccc12)c1ccc(Cl)c([N+](=O)[O-])c1", "inhibition / %": 3.18}
{"Compound": "COc1cc(/C=N/Nc2nn3cnnc3c3ccccc23)cc(OC)c1OC", "inhibition / %": -1.69}
{"Compound": "COc1ccc2[nH]c(=O)c(CN(Cc3cccnc3)S(=O)(=O)c3ccccc3F)cc2c1", "inhibition / %": 1.17}
{"Compound": "O=C1CCC([N+](=O)[O-])C(c2ccccc2Br)N1 (stereo not drawn)", "inhibition / %": 78.7}
{"Compound": "Cc1cccc(NC(=O)Nc2ccc3c(c2)OCO3)n1", "inhibition / %": -5.1}
{"Compound": "Cc1ccc(C(=O)NN(CCC#N)C2=NS(=O)(=O)c3ccccc32)cc1", "inhibition / %": -2.85}
{"Compound": "COc1cc(C(=O)N2CCN(C)CC2)cc(OC)c1OC", "inhibition / %": -1.01}
{"Compound": "Cc1nc(COc2cc3oc(=O)cc(C)c3cc2Cl)cs1", "inhibition / %": 1.76}
{"Compound": "CCc1c(C)sc(NC(=O)/C=C/c2ccc3c(c2)OCO3)c1C(=O)OC", "inhibition / %": -8.23}
{"Compound": "COc1ccc(CC(=O)N/N=C(\\C)c2ccccn2)cc1", "inhibition / %": 2.53}
{"Compound": "CSc1ccccc1NC(=O)c1cc(Cl)sc1Cl", "inhibition / %": 2.29}
{"Compound": "C/C(=N\\NC(=O)c1ccccc1F)c1ccccn1", "inhibition / %": 21.6}
{"Compound": "Cc1ccc2nc(/C(C#N)=C\\c3ccc(OC(=O)c4cccs4)cc3)[nH]c2c1", "inhibition / %": 30.5}
{"Compound": "CSCCC(C(=O)NC1=NCCS1)N1C(=O)c2ccccc2C1=O (stereo not drawn)", "inhibition / %": 33.2}
{"Compound": "O=C(O)CCC(=O)Nc1ccc(OCC2CCCO2)cc1 (stereo not drawn)", "inhibition / %": 1.1}
{"Compound": "CC(=O)c1ccc(NC(=O)Cn2c(=O)oc3ccccc32)cc1", "inhibition / %": -5.66}
{"Compound": "COc1cc(CNC2CCCCC2)c(Br)cc1OC1CCCC1", "inhibition / %": 35.2}
{"Compound": "O=C(Oc1cccc(O)c1)C1CCCCC1", "inhibition / %": 2.03}
{"Compound": "O=C(Nc1ccc(CN2CCOCC2)cc1)c1cc(Cl)ccc1Cl", "inhibition / %": -0.42}
